Tested on: NCI-H522
Assay: NCI tumour cell line growth inhibition, 48 h
Where a name gives a salt, the structure may show the parent alone. The source made the active and inactive calls. Cut-off read from the data, not from the text of the source: active = GI50 up to about 1.1 µM and inactive = higher.
Hello, when you answer, please use one of the following outcomes: class 1 for active, class 0 for inactive

[[record]]
compound = "O=c1c2cc(I)ccc2nc(S)n1Cc1ccccc1"
category = "class 0"

[[record]]
compound = "O=C1Nc2ccc(Br)cc2C1=Nc1cccnc1"
category = "class 0"

[[record]]
compound = "O=C(O)CSc1ccc([N+](=O)[O-])cc1[N+](=O)[O-]"
category = "class 0"

[[record]]
compound = "Cc1ccc(Sc2ccc(C)cc2[N+](=O)[O-])c([N+](=O)[O-])c1"
category = "class 0"

[[record]]
compound = "COC(=O)[C@]12CC[C@H]3CN(S(=O)(=O)c4ccc(C)cc4)[C@H]([C@H]31)[C@H](c1ccco1)N2S(=O)(=O)c1ccc(C)cc1"
category = "class 0"

[[record]]
compound = "CC[C@]12CN3CCc4c([nH]c5ccccc45)[C@@](C(=O)OC)(c4cc5c(cc4OC)N(C)[C@H]4[C@@](O)(C(=O)OC)[C@H](OC(C)=O)[C@]6(CC)C=CCN7CC[C@]54[C@@H]76)CC(C3)[C@H]1O2 (some centres undefined) [VINLEUROSINE SULFATE]"
category = "class 1"


Task: Recorded call for O=CC1OC(=O)c2cc(O)c(O)c(O)c2-c2c(cc(O)c(O)c2O)C(=O)OC1C(O)C(O)CO (centres undefined) ?
Output: class 0

Task: Record: C[N+]12CCCCC1C(COc1cccc3cccnc13)CCC2 (centres undefined)
Output: class 0

Task: Please give the result for N#CC(c1ccccc1)c1cccc2ccccc12 (centres undefined) too.
Output: class 0

Task: What would you report for COc1ccc2nc(NCN3C(=O)c4ccccc4C3=O)sc2c1 ?
Output: class 0

Task: What do you get for CCO/C=N/C1=C(C#N)C(c2ccc(OC)c(OC)c2)c2c(-c3ccccc3)nn(-c3ccccc3)c2O1 (centres undefined) ?
Output: class 0
